test-system: T1, recombinant human IL-23R/Fc chimera (R&D Systems) (human, UniProt Q5VWK5 24-355)
T1 construct: Bought; also called rhIL23RFc
T1 sequence (looked up): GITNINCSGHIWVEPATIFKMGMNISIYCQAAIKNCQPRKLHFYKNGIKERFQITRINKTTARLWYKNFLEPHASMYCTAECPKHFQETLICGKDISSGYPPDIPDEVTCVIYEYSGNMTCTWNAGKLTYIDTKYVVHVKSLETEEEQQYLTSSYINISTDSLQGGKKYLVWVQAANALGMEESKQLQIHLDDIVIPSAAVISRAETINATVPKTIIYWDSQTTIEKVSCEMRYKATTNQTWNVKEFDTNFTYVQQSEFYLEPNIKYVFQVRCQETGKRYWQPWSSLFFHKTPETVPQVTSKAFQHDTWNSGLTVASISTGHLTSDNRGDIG
method-description: competition ELISA vs IL-23
# thresholds on Ratio IC50 to 056-53.H4E IC50 define classes: group 1: < 2; group 2: ≥ 2 and < 3; group 3: ≥ 3

binder	category-label
105-61-4G3 ATRIMER complex (designed binder, also called 61-p4G3) EPPTQKPKKIVNAKKDVVNTKMFEELKSRLDTLAQEVALLKEQQALQTVCLKGTKVHMKCFLAFTQTKTFHEASEDCISRGGTLSTPQTGSENDALYEYLRQSVGNEAEIWLGLNGSLRTDTWVDMTGARIAYKNWETEITAQPDGGFGVFGENCAVLSGAANGKWFDKRCRDQLPYICQFGIV	group 1
105-08-1A7 ATRIMER complex (designed binder, ATRIMER complex: homotrimer of three copies of this chain, joined by the tetranectin coiled coil, not shown: C-terminal tag: Myc/His (pANA4) or HA-StrepII (pANA10)) EPPTQKPKKIVNAKKDVVNTKMFEELKSRLDTLAQEVALLKEQQALQTVCLKGTKVHMKCFLAFTQTKTFHEASEDCISRGGTLSTPQTGSENDALYEYLRQSVGNEAEIWLGLNGSVRTNTWVDMTGARIAYKNWETEITAQPDGGFGYFGENCAVLSGAANGKWFDKRCRDQLPYICQFGIV	group 2
105-08-1B10 ATRIMER complex (designed binder, not shown: C-terminal tag: His/Myc (pANA4) or HA-StrepII (pANA10)) EPPTQKPKKIVNAKKDVVNTKMFEELKSRLDTLAQEVALLKEQQALQTVCLKGTKVHMKCFLAFTQTKTFHEASEDCISRGGTLSTPQTGSENDALYEYLRQSVGNEAEIWLGLNGSRHTDTWVDMTGARIAYKNWETEITAQPDGGFGYFGENCAVLSGAANGKWFDKRCRDQLPYICQFGIV	group 3
105-08-1C9 ATRIMER complex (designed binder) EPPTQKPKKIVNAKKDVVNTKMFEELKSRLDTLAQEVALLKEQQALQTVCLKGTKVHMKCFLAFTQTKTFHEASEDCISRGGTLSTPQTGSENDALYEYLRQSVGNEAEIWLGLNGSTLTDTWVDMTGARIAYKNWETEITAQPDGGFGYFGENCAVLSGAANGKWFDKRCRDQLPYICQFGIV	group 3
105-61-4G5 ATRIMER complex (designed binder) EPPTQKPKKIVNAKKDVVNTKMFEELKSRLDTLAQEVALLKEQQALQTVCLKGTKVHMKCFLAFTQTKTFHEASEDCISRGGTLSTPQTGSENDALYEYLRQSVGNEAEIWLGLNGSPLTNTWVDMTGARIAYKNWETEITAQPDGGFGVFGENCAVLSGAANGKWFDKRCRDQLPYICQFGIV	group 1

Prompt line: Assign a category based on measured Ratio IC50 to 056-53.H4E IC50 for 105-08-2G6 ATRIMER complex (designed binder) EPPTQKPKKIVNAKKDVVNTKMFEELKSRLDTLAQEVALLKEQQALQTVCLKGTKVHMKCFLAFTQTKTFHEASEDCISRGGTLSTPQTGSENDALYEYLRQSVGNEAEIWLGLNGSLLTDTWVDMTGARIAYKNWETEITAQPDGGWGYFGENCAVLSGAANGKWFDKRCRDQLPYICQFGIV and give only the class name.
Response line: group 3

Prompt line: Kindly identify the class of 105-20-2C4a ATRIMER complex (designed binder, ATRIMER complex: homotrimer of three copies of this chain, joined by the tetranectin coiled coil, not shown: C-terminal tag: Myc/His (pANA4) or HA-StrepII (pANA10)) EPPTQKPKKIVNAKKDVVNTKMFEELKSRLDTLAQEVALLKEQQALQTVCLKGTKVHMKCFLAFTQTKTFHEASEDCISRGGTLSTPQTGSENDALYEYLRQSVGNEAEIWLGLNGSAKTDTWVDMTGARIAYKNWETEITAQPDGGWGYFGENCAVLSGAANGKWFDKRCRDQLPYICQFGIV .
Response line: group 2

Prompt line: Record 105-08-2B3 ATRIMER complex (designed binder, not shown: small tags and cut ends) EPPTQKPKKIVNAKKDVVNTKMFEELKSRLDTLAQEVALLKEQQALQTVCLKGTKVHMKCFLAFTQTKTFHEASEDCISRGGTLSTPQTGSENDALYEYLRQSVGNEAEIWLGLNGSAITNTWVDMTGARIAYKNWETEITAQPDGGWGYFGENCAVLSGAANGKWFDKRCRDQLPYICQFGIV — which class?
Response line: group 3

Prompt line: Which category fits this record: 105-20-1H7 ATRIMER complex (designed binder) EPPTQKPKKIVNAKKDVVNTKMFEELKSRLDTLAQEVALLKEQQALQTVCLKGTKVHMKCFLAFTQTKTFHEASEDCISRGGTLSTPQTGSENDALYEYLRQSVGNEAEIWLGLNGSAGTNTWVDMTGARIAYKNWETEITAQPDGGFGYFGENCAVLSGAANGKWFDKRCRDQLPYICQFGIV
Response line: group 2

Prompt line: Any idea which band 105-59-3B5 ATRIMER complex (designed binder) EPPTQKPKKIVNAKKDVVNTKMFEELKSRLDTLAQEVALLKEQQALQTVCLKGTKVHMKCFLAFTQTKTFHEASEDCISRGGTLSTPQTGSENDALYEYLRQSVGNEAEIWLGLNGSPITDTWVDMTGARIAYKNWETEITAQPDGGFGVFGENCAVLSGAANGKWFDKRCRDQLPYICQFGIV is in?
Response line: group 1

Prompt line: Into which bin does this binder go? 105-08-2C4 ATRIMER complex (designed binder, ATRIMER complex: homotrimer of three copies of this chain, joined by the tetranectin coiled coil, not shown: C-terminal tag: Myc/His (pANA4) or HA-StrepII (pANA10)) EPPTQKPKKIVNAKKDVVNTKMFEELKSRLDTLAQEVALLKEQQALQTVCLKGTKVHMKCFLAFTQTKTFHEASEDCISRGGTLSTPQTGSENDALYEYLRQSVGNEAEIWLGLNGSLLTNTWVDMTGARIAYKNWETEITAQPDGGFGYFGENCAVLSGAANGKWFDKRCRDQLPYICQFGIV
Response line: group 2

The measured values listed here are drawn from patent US20110086806A1.
